# A2.1 Binding values compiled below
- ASSAYED SYSTEM: A2.1 HLA molecules (Homo sapiens, UniProt P04439, D140Y/D185E/D98H/E176V/E277Q/G131W/G231S/I119V/I121R/I166T/I218V/L300P/L318F/N151K/N90K/P208A/P217A/Q86G/Q94H/R138H/R169H/T345S)
- Format: binding
- Design: scale not given here
When you answer, write just the number.

Take a look at these entries with their results.
- ENTRY SEQUENCE: "MLNVMKEAV"
  A2.1 Binding: 0.0039
- ENTRY SEQUENCE: "SLRIKRELL"
  A2.1 Binding: 0

Which A2.1 Binding value is on record for YLCCGITLL ? 0.021

* * *

- ASSAYED SYSTEM: A*2902 (Homo sapiens, UniProt P04439, A270S/D101N/D185E/E176V/E277Q/E87Q/F33T/G231S/H175R/I121M/I218V/I322F/K168Q/L300P/L318F/M331R/P208A/P217A/Q86L/T323A/T345S/V100A/V358M)
- PROTOCOL: biochemical
- Assay type: binding
pIC50: −log10 of the molar value. No end group written: not given here.
ENDPOINT LABEL: pIC50

Reference set (2 entries):
- ENTRY SEQUENCE: "EISNYTDIIY [Peptide 9015.0158]"
  RECORDED MEASUREMENT: "< 4.70"
- ENTRY SEQUENCE: "QTKGLGISY [Peptide 9015.0031]"
  RECORDED MEASUREMENT: "< 4.70"

Note: attention shifts to another entry.
Using the record for RFALNPGLL [Peptide 1605.01] , report its pIC50. < 4.70

* * *

Catalogue of pIC50 readings, one per entry.
- ASSAYED SYSTEM: A*2902 (Homo sapiens, UniProt P04439, A270S/D101N/D185E/E176V/E277Q/E87Q/F33T/G231S/H175R/I121M/I218V/I322F/K168Q/L300P/L318F/M331R/P208A/P217A/Q86L/T323A/T345S/V100A/V358M)
- PROTOCOL: biochemical
- Assay type: binding
No end group written: not given here.
# reply with the number alone; pIC50 is -log10 of concentration in mol/L

Look over these answered cases.
- ENTRY SEQUENCE: "NTDRHSVVVPY [Peptide 9012.0198]"
  ENDPOINT LABEL: "pIC50"
  RECORDED MEASUREMENT: 5.77
- ENTRY SEQUENCE: "TMDYPLWSQSY [Peptide 9012.0196]"
  ENDPOINT LABEL: "pIC50"
  RECORDED MEASUREMENT: 6.14
- ENTRY SEQUENCE: "YTMAGVGSPY [Peptide 9012.0153]"
  ENDPOINT LABEL: "pIC50"
  RECORDED MEASUREMENT: 8.66
- ENTRY SEQUENCE: "ATDLGLSY [Peptide 9012.0112]"
  ENDPOINT LABEL: "pIC50"
  RECORDED MEASUREMENT: 5.66
- ENTRY SEQUENCE: "FTTCLGLSY [Peptide 9012.0136]"
  ENDPOINT LABEL: "pIC50"
  RECORDED MEASUREMENT: 8.66
- ENTRY SEQUENCE: "GTDPACYEF [Peptide 9012.0135]"
  ENDPOINT LABEL: "pIC50"
  RECORDED MEASUREMENT: 5.71
- ENTRY SEQUENCE: "ITSKASEY [Peptide 9012.0108]"
  ENDPOINT LABEL: "pIC50"
  RECORDED MEASUREMENT: 4.82
- ENTRY SEQUENCE: "CTDIHYNY [Peptide 9012.0114]"
  ENDPOINT LABEL: "pIC50"
  RECORDED MEASUREMENT: 5.59

Here is the next item to consider.
Looking for the measured pIC50 of PTDDPSPLQRY [Peptide 9012.0186] , can you help? 6.03
